Tested on: S. aureus ATCC 25923
Type: cell-based, Staphylococcus aureus
Bridge positions count the residues as written; N and C are the ends. Square brackets hold non-standard residues; d marks the D form. Triazole bridges read from a SMILES are 1,4-linked. Peptide text beside a SMILES is read from it. dLys(N3) = [N-]=[N+]=NCCCC[C@@H](N)C(=O)O; Pra = C#CC[C@H](N)C(=O)O
Catalogue of MIC S. aureus ATCC 25923 values
assay.readout: MIC S. aureus ATCC 25923

1) CC[C@H](C)[C@H](NC(=O)[C@H](CCCNC(=N)N)NC(=O)CNC(=O)[C@@H](CC(C)C)NC(=O)[C@@H]1CCC(=O)NCCCC[C@H](NC(=O)[C@@H]2CCCN2C(=O)[C@@H](NC(=O)[C@@H](N)Cc2ccccc2)C(C)C)C(=O)N[C@@H](Cc2ccccc2)C(=O)N[C@@H](CO)C(=O)N[C@@H](CCCCN)C(=O)N1)C(=O)N[C@@H](CC(C)C)C(N)=O [compound 14] (H-FVPKFSKE[dL]GRIL-NH2; lactam 4-8): >100 µM
2) CC[C@H](C)[C@H](NC(=O)[C@H](CCCNC(=N)N)NC(=O)CNC(=O)[C@H]1CCCCn2cc(nn2)C[C@H](NC(=O)[C@H](Cc2c[nH]c3ccccc23)NC(=O)[C@@H]2CCCN2C(=O)[C@@H](NC(=O)[C@@H](N)Cc2ccccc2)C(C)C)C(=O)N[C@@H](CO)C(=O)N[C@@H](CCCCN)C(=O)N[C@@H](Cc2ccccc2)C(=O)N1)C(=O)N[C@@H](CC(C)C)C(N)=O [compound 18] (H-FVPW[Pra]SKF[dLys(N3)]GRIL-NH2; triazole 5-9): >100 µM
3) CC(C)C[C@H](NC(=O)[C@@H]1CCC(=O)NCCCC[C@H](NC(=O)[C@H](Cc2c[nH]c3ccccc23)NC(=O)[C@@H]2CCCN2C(=O)[C@@H](NC(=O)[C@@H](N)Cc2ccccc2)C(C)C)C(=O)N[C@@H](CO)C(=O)N[C@@H](CCCCN)C(=O)N[C@@H](Cc2ccccc2)C(=O)N[C@H](CC(C)C)C(=O)NCC(=O)N[C@@H](CCCNC(=N)N)C(=O)N1)C(N)=O [compound 21] (H-FVPWKSKF[dL]GREL-NH2; lactam 5-12): >100 µM
